Field: Dmax. Provide a value for each of the compounds that follow.
Target: SMARCA4 (Homo sapiens, UniProt P51532)
Construct: endogenous in cells
Sequence (P51532 whole entry, species assumed): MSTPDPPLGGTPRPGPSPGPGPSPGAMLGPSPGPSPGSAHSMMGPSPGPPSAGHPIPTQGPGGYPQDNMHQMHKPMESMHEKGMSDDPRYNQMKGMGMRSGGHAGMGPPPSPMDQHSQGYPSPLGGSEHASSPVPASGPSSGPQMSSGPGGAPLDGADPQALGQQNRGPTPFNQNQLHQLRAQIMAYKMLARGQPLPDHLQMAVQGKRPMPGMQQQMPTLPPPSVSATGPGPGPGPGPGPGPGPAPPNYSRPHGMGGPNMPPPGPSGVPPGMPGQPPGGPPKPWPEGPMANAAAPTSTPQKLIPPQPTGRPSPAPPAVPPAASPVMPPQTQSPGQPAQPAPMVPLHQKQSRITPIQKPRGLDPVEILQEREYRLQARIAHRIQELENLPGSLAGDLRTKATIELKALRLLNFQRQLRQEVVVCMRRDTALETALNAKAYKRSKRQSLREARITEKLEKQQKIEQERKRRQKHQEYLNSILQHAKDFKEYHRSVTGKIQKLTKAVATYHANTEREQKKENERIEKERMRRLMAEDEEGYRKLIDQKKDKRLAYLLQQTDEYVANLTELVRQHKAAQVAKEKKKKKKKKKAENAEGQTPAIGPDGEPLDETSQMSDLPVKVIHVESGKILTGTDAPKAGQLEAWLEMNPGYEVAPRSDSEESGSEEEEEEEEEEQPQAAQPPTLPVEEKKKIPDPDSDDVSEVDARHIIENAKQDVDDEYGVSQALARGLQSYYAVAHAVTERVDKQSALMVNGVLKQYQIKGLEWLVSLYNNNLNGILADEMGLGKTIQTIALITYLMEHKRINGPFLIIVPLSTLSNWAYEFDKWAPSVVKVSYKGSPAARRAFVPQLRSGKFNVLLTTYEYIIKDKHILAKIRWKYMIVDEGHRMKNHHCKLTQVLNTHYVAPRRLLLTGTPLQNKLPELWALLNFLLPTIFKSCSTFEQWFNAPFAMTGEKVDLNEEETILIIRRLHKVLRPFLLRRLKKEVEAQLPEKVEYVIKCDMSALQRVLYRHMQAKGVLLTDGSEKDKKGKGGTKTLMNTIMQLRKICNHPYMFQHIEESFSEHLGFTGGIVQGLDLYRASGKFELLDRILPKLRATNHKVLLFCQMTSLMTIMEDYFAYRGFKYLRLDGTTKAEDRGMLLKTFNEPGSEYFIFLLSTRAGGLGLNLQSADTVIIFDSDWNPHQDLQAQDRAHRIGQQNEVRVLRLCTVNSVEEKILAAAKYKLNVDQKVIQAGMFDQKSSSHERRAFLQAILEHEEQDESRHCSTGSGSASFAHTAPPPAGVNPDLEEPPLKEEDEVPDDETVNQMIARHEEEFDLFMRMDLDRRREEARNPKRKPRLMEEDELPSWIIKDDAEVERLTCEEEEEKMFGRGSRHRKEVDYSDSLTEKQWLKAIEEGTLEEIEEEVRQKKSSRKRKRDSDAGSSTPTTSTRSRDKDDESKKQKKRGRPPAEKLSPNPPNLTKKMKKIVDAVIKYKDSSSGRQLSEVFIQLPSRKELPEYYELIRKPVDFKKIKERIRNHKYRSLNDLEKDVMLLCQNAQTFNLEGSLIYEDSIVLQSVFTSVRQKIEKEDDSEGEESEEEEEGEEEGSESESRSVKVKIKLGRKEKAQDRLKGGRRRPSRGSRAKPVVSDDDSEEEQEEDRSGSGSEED
Assay: Cellular degradation assay, SMARCA4 (Table 1)
Assay type: cell-based
One number for each entry, in %.

# annotated cases, reported Dmax shown
{"Compound": "O=C1CC[C@@H](c2ccc(N3CCC(CN4CCC5(C4)CN(C(=O)C4(c6ccccc6)CCN(c6cnnc(-c7ccccc7O)c6)CC4)C5)CC3)cc2)C(=O)N1 [Example 9]", "Dmax / %": 44.7}
{"Compound": "O=C1CC[C@H](NC(=O)c2ccc(N3CCC(CN4CCC(NC(=O)C5(c6ccccc6)CCN(c6cnnc(-c7ccccc7O)c6)CC5)CC4)CC3)nc2)C(=O)N1 [Example 156]", "Dmax / %": 36}

Shift focus to the following entry.
State the recorded Dmax for this entry: COC1(C(=O)N(C)C2CCN(C(=O)CN3CCC(c4ccc([C@@H]5CCC(=O)NC5=O)cc4)CC3)CC2)CCN(c2cnnc(-c3ccccc3O)c2)CC1 (racemic) [Example 111]
57.5

----------
Molecular target: SMARCA4 (Homo sapiens)
Construct: endogenous in cells
Assay: Cellular degradation assay, SMARCA4 (Table 1)
Format: cell-based
Field: DC50. Provide a value for each of the compounds that follow.
Give bare numbers, in nM.

{"Compound": "COC1(C(=O)NCC2(c3ccccc3)CCN(c3cnnc(-c4ccccc4O)c3)CC2)CCN(CCC2CCN(c3ccc([C@H]4CCC(=O)NC4=O)cc3)CC2)CC1 (racemic)", "Unit Abbreviation": "nM", "Endpoint Value": 20.2}
{"Compound": "COc1ccccc1C1(C(=O)N(C)C2CCN(CC3CCN(c4ccc([C@H]5CCC(=O)NC5=O)cc4)CC3)CC2)CCN(c2cnnc(-c3ccccc3O)c2)CC1", "Unit Abbreviation": "nM", "Endpoint Value": 20.5}

State the recorded DC50 for this entry: "O=C1CC[C@H](c2ccc(N3CCC(CN4CC5(C4)CN(C(=O)C4(Oc6ccccc6Cl)CCN(c6cnnc(-c7ccccc7O)c6)CC4)C5)CC3)cc2)C(=O)N1"
20.3

----------
Target: SMARCA2 (Homo sapiens)
Construct: endogenous in cells
Sequence (P51531 whole entry, species assumed): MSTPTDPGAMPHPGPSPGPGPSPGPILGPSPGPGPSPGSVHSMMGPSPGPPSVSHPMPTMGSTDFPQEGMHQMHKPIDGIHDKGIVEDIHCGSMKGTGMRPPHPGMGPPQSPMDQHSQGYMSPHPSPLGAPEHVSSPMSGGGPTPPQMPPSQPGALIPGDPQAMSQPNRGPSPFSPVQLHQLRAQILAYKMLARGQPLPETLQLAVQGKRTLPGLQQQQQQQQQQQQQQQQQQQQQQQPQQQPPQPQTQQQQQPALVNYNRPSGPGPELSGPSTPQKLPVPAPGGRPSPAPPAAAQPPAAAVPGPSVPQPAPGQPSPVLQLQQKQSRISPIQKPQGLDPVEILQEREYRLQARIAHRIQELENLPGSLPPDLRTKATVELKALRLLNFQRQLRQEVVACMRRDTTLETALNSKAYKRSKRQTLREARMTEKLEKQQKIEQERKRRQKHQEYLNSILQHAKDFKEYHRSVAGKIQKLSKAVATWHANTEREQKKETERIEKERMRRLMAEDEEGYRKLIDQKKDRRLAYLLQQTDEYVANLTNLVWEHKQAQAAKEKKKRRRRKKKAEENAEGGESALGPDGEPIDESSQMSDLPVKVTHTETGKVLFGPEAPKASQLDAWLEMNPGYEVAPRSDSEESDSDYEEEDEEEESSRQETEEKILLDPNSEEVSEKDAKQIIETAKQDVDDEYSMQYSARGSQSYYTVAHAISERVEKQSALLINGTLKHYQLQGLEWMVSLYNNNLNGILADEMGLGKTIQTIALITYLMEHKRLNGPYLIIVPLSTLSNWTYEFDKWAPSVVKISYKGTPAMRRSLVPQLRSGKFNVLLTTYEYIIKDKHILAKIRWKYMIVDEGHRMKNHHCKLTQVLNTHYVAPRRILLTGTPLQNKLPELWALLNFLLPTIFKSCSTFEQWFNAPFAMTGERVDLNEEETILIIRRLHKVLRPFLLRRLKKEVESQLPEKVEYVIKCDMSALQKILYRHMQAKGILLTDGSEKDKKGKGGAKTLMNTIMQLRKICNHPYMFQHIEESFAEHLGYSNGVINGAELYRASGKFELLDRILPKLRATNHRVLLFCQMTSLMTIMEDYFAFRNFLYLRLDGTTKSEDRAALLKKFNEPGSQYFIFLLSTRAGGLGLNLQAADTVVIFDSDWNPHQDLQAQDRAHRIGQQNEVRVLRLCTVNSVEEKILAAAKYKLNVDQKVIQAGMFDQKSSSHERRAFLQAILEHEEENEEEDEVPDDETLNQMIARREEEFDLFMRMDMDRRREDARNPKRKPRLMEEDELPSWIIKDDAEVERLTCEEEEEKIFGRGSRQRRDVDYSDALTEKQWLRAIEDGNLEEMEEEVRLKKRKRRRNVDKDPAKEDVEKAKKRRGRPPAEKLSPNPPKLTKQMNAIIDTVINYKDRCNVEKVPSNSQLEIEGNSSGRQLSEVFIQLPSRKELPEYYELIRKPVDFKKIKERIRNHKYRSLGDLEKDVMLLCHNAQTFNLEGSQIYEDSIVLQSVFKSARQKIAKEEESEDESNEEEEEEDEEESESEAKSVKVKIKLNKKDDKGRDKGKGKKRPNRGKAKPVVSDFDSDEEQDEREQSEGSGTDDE
Test: SMARCA2 Cellular Degradation Assay (Western blot analysis on Jess platform)
Format: cell-based
Conditions: cellular degradation
Field: Dmax. Provide a value for each of the compounds that follow.
Numbers only, in %.

# annotated cases, reported Dmax shown
{"Compound": "O=C1CC[C@H](c2ccc(N3CCC(CNC4CC5CCCC(C4)C5NC(=O)C4(c5ccccc5)CCN(c5cnnc(-c6ccccc6O)c5)CC4)CC3)cc2)C(=O)N1 (stereo partly shown)", "Dmax (%)": 76.9}
{"Compound": "CN(C(=O)C1(OC2CC2)CCN(c2cnnc(-c3ccccc3O)c2)CC1)C1CCN(C(=O)CN2CCC(c3ccc([C@@H]4CCC(=O)NC4=O)cc3)CC2)CC1 (racemic)", "Dmax (%)": 77.6}
{"Compound": "O=C1CC[C@H](n2ccc3cc(N4CCC(CN5CCC(NC(=O)C6(c7ccccc7)CCN(c7cnnc(-c8ccccc8O)c7)CC6)CC5)CC4)ccc3c2=O)C(=O)N1", "Dmax (%)": 91.8}
{"Compound": "CN(C(=O)C1(c2ccnn2C)CCN(c2cnnc(-c3ccccc3O)c2)CC1)C1CCN(CCC2CCN(c3cccc4c3n(C)c(=O)n4C3CCC(=O)NC3=O)CC2)CC1 (racemic)", "Dmax (%)": 93.2}
{"Compound": "CCN(C(=O)C1(c2ccccc2)CCN(c2cnnc(-c3ccccc3O)c2)CC1)C1CCN(CC2CCN(c3ccc([C@H]4CCC(=O)NC4=O)cc3)CC2)CC1", "Dmax (%)": 91.3}

Please give Dmax, item by item, for the list that follows.
1. COCCN(CC1(c2ccccc2)CCN(c2cnnc(-c3ccccc3O)c2)CC1)C(=O)C1CCN(CCC2CCN(c3ccc([C@@H]4CCC(=O)NC4=O)cc3)CC2)CC1 (racemic)
2. O=C1CCC(c2ccc(N3CCC(CCN4CC5(CCCN(C(=O)C6(c7ccccc7)CCN(c7cnnc(-c8ccccc8O)c7)CC6)C5)C4)CC3)cc2)C(=O)N1 (racemic)
3. CN(C(=O)C1(OC2CCCCC2)CCN(c2cnnc(-c3ccccc3O)c2)CC1)C1CCN(C(=O)CN2CCC(c3ccc([C@@H]4CCC(=O)NC4=O)cc3)CC2)CC1 (racemic)
4. O=C1CC[C@@H](c2ccc(O[C@H]3CC[C@H](CN4CC5(C4)CN(C(=O)C4(c6ccccc6)CCN(c6cnnc(-c7ccccc7O)c6)CC4)C5)CC3)cc2)C(=O)N1 (racemic)

1. 92.8
2. 67.5
3. 82.1
4. 65.8

State the recorded Dmax for this entry: O=C1CCC(c2ccc(N3CCC(CCN4CC5(C4)CN(C(=O)C4(c6ccccc6F)CCN(c6cnnc(-c7ccccc7O)c6)CC4)C5)CC3)cc2)C(=O)N1 (racemic)
71.6
